# System: MS2 coat protein
# Protocol Notes: apparent KD of MS2 coat protein; designed switch direction (-1 OFF switch, 1 ON switch): -1; higher = weaker reporter binding
# Cond: input ligand: FMN 200 uM
Measured apparent KD of MS2 coat protein accompanies every entry in the list below.
Measurement Label: apparent KD of MS2 coat protein (nM)

>  <Entry Sequence>
CUUGUUUAUGUAGGAUAUGCCUGGCGUGCCUUUGCAGAAGGACAUGAGGAUCACCCAUGUAUUGCGGUCUGCGUUCAGAUCGCG [salish99_ExNG1_r4_043] (Eterna round: R96, puzzle: Exclusion NG 1)

>  <Target System>
MS2 coat protein

>  <Measured Number>
39

$$$$
>  <Entry Sequence>
CAUAUGGGAGGAUAUGCAUAGAUAAAGAAACAUGUUCAACCACAUGAGGAUCACCCAUGUAGAAGGCCCAUAUG [Mat - Same state - Mayanna Mod - D102] (Eterna round: R96, puzzle: Exclusion 2)

>  <Target System>
MS2 coat protein

>  <Measured Number>
266

$$$$
>  <Entry Sequence>
ACGAUGACCGAAAAGUGUAAACUGACAUGAGGAUCACCCAUGUAGGAUAUGGCUACGAAAAGUAGUCAGAAGGGCAUGUCAUCA [Omei Exc(NG) 3 Av9] (Eterna round: R96, puzzle: Exclusion NG 3)

>  <Target System>
MS2 coat protein

>  <Measured Number>
16

$$$$
>  <Entry Sequence>
CCCACAAGCUUUUUGCUCGACAUGAGGAUCACCCAUGUAAAAUGGGUAAAUUUAAAUUGAAACAAUUUAAAUUUGGG [-20.1, -44.2 kcal, A 35%] (Eterna round: R97, puzzle: Sensor, turn-off variant 1)

>  <Target System>
MS2 coat protein

>  <Measured Number>
262

$$$$

----------
# System: K4 kissing-loop RNA reporter
# Protocol Notes: apparent KD of K4 kissing-loop reporter; higher = weaker reporter binding
# Cond: Eterna round: R107; input ligand: theophylline 20 uM
Examples of sequences with documented apparent KD of K4 kissing-loop reporter follow.
Measurement Label: apparent KD of K4 kissing-loop reporter (nM)

>  <Entry Sequence>
GGUAGCAUGGCGGCCGCCACUCUUCAUUAGUGAUGUUAAUGCCGAGUGCGCUAACUCCGCCAGGAGAGGACCGGGCCAUGCUACC

>  <Measured Number>
407

$$$$
>  <Entry Sequence>
UGAUACCAGACUGAUACCAGCCAGUGAUGUUGGCUAAUCCAAGAAGGAGUCAAAGACUCCGGCCCUUGGCAGCAGUCUGGUAUCU [TheoBX 3 #SwitchBubble #StaticStem]

>  <Measured Number>
110

$$$$
>  <Entry Sequence>
GGAUCCACCAGUGAUGUUGGAGAAAACUCGAAGGAUAUGACGAAAGUCAGAAGGUUGUAGACUGGACAAAGUCCGGUCGGAUCCA [FmnA 23 G30+U56]

>  <Measured Number>
590

$$$$
>  <Entry Sequence>
UAUAUAUGAUGUGAUACCAGUGAAAAGCCAGUGAUGUUGGUAGAACUGGUAUAUAAAUGGCACCCUUGGCAGCACAAUCACGUAU [#28 K4 Theophylline B Exclusion]

>  <Measured Number>
120

$$$$
>  <Entry Sequence>
UGAUAGGACAGAAGGAGCGGAAUGCUGUCCAAAAGGACAGCAAAUAUAACAGGAGUGAUGUUCCAGGUAGGUCGCUGUCCUAUCU [ArgBX 21 #SwitchBubble #StaticStem]

>  <Measured Number>
199

$$$$
>  <Entry Sequence>
AACUGUCAAGGAACUUGCAACAAAGGUGAUACCAGCAUCGAAAGAUGCCCUUGGCAGCACCAACUUGCAGUGAUGUUGCAAGUAA [(T)'-(H)'-(T1)-(T2)-(H1)-(H2)_Design7]

>  <Measured Number>
402

$$$$
>  <Entry Sequence>
CGGCGUGCCUUAUCCUCAUCUCUGACUCAACGAGGACCGGUACGGCCGCCACUCGGAAGAGGCAGUGAUGUUGCCUACGCCGGUG [Oronat]

>  <Measured Number>
82.3

$$$$
>  <Entry Sequence>
ACACGGAGAGGCAUAACGUGCAUCUUCAGCGAGGAUAUCCAUUACAGGAGAAGGCGCUCCGGAGUGAUGUUCCGGCAAAAGAUAC [Quatatte]

>  <Measured Number>
146

$$$$

----------
# System: K4 kissing-loop RNA reporter;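 also: bound reporter read as fluorescence of individual clusters on recovered sequencing chips by microscopy, with normalized cluster intensities fitted with a binding model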
# Protocol Notes: apparent KD of K4 kissing-loop reporter; higher = weaker reporter binding
# Cond: Eterna round: R107; input ligand: FMN 200 uM
Listing of recorded apparent KD of K4 kissing-loop reporter by entry.

>  <Entry Sequence>
GGUAGCAUGGCGGCCGCCACUCUUCAUUAGUGAUGUUAAUGCCGAGUGCGCUAACUCCAACAGGAGAGGACCGGGCCAUGCUACC

>  <apparent KD of K4 kissing-loop reporter>
532 nM

$$$$
>  <Entry Sequence>
UCGAGUUGACGAAGAGUCAACUCGUGUGAUACCAGUGACGAAAGUCACCCUUGGCAGCACUAUGCUAGUGAUGUUGGUAUUUAAG [#08 K4 Theophylline A Same State]

>  <apparent KD of K4 kissing-loop reporter>
190 nM

$$$$
>  <Entry Sequence>
GGGAGUAGUGCGGCCGCCACUGAGAAAGAAGAAGAAUAUAGUGAUGUUAUAUAGGAAGGGAAGAAUAGGACCGGGCAUUAGAUUU [SSTRyptB.Z]

>  <apparent KD of K4 kissing-loop reporter>
336 nM

$$$$

----------
# System: MS2 coat protein
# Protocol Notes: apparent KD of MS2 coat protein; higher = weaker reporter binding
# Cond: Eterna round: R107; input ligand: arginine 13.2 mM
I would appreciate it if you labelled entries YES when apparent KD of MS2 coat protein is 0.02 µM or higher, otherwise NO.

>  <Entry Sequence>
AGGAGACAUGAGGAUCACCCAUGUCCAGAUACCAGAAUGUCUUUGUUCCCUUGGCAGCUGUGGAAAUCUGACCUGCCUCGGUCUG [theeternabot_sameState_MS2_Theo_A_31]

>  <Assigned Category>
NO

$$$$
>  <Entry Sequence>
UCGAUGGUACCCGAUACCAGCAAUACAUCACAGACCUGAUACAUGAGGAUCACCCAUGUGUGCCCUUGGCAGCGGGUCCUGAAAA [theeternabot_exclusion_MS2_Theo_B_25]

>  <Assigned Category>
NO

$$$$
>  <Entry Sequence>
CAAAAUGCGGCGGCCGCCACUCAGCUCCGUGUGGUUGGUCAUCUUAACAUGAGGAUCACCCAUGUGAGGACCGGGCCAGCGAGUG [theeternabot_exclusion_MS2_Trp_B_38]

>  <Assigned Category>
NO

$$$$
>  <Entry Sequence>
UGCAUUAUACAUGGAUCACCCAUGUAGACACGAGGACCGGUACGGCCGCCACUCGGAAGAGGGAACAUGAGGAUCACCCAUGUGA [Try A SS t1]

>  <Assigned Category>
YES

$$$$
>  <Entry Sequence>
AAGGUGAUCCGUGAUACCAGCUCAACAUGAGGAUCACCCAUGUAAGCCUGGAAACAGGCGAGCCCUUGGCAGCACGGUUGCCAAG [(M)'-(Theo1)-(Ms2)-(Theo2)-(M'')-(T2)'_Design1]

>  <Assigned Category>
YES

$$$$

----------
# System: MS2 coat protein
# Protocol Notes: apparent KD of MS2 coat protein; higher = weaker reporter binding
# Cond: Eterna round: R107; input ligand: arginine 13.2 mM
Category scheme (apparent KD of MS2 coat protein): L = under 20 nM, M = from 20 nM up to 90 nM, H = 90 nM and over

>  <Entry Sequence>
GGACCAGGGAGCGAUACCAGCUUGAGUGUGCUGGCCAGGCACAUGAGGAUCACCCAUGUAGGCCCUUGGCAGCGCUCCCUGGUCC [#1 Exclusion - Theophylline B Attempt #28 (HarryS)]

>  <Assigned Category>
L

$$$$
>  <Entry Sequence>
UUAUUUAACGGAAGGAGCGCGGAAAUAAAAGUGGGUAAACAUGAGGAUCACCCAUGUAAACCGCAGGUAGGUCGCCGAUAUUUAU [AstrosEXyARgB#2]

>  <Assigned Category>
M

$$$$
>  <Entry Sequence>
GGAUAGGACACGGCCGCCACUAGCUAGGAUACUAGCAACAUUUCCUCACUUGAGGAUCACCCAGGUAGGACCGGGUGUCCUAUCG

>  <Assigned Category>
H

$$$$
>  <Entry Sequence>
UUAAUCAAUAUAGAAAACUAUAUUGCAGAAGGAGCGUGAUAAAACACAGGUAGGUCGCUGAAGGGAACAUGAGGAUCACCCAUGU [AstrosSSArgA#5]

>  <Assigned Category>
M

$$$$
>  <Entry Sequence>
ACAUGAGGAUCACCCAUGUAUCAACGGGAAGGAGCGCCAAACAAGGCAGGUAGGUCGCCCACAUGAGGAUCACCCAUGUGUUGGU [Exclusion Arginine A GF 29]

>  <Assigned Category>
M

$$$$
>  <Entry Sequence>
UGAGAGGGCAGAAGGAGCGACAUGAGGAUCACCCAUGUCUCCCGUUAUGGGAGUUCUUUAGGUCAGGUAGGUCGCUGGCCUCUCA [#1 Exclusion - Arginine B Attempt #9 (Inspired by Omei)]

>  <Assigned Category>
M

$$$$
>  <Entry Sequence>
CCGUUUUAUGGCGACAUAGGGCGGACUGAAGGAGCGGUGAAUAAGCCAGGUAGGUCGCAGAGAUCCACAUGAGGAUCACCCAUGU [!0.aD]

>  <Assigned Category>
H

$$$$
>  <Entry Sequence>
UUUGAUAGGACAGAUACCAGCGUGUUAUAGAACAUGAGGAUCACCCAUGUAGUGAUCAAGCGCCCUUGGCAGCUGGUUUGUUAGG [7.K]

>  <Assigned Category>
H

$$$$
>  <Entry Sequence>
UGAUAUAGGGAGCCGUAUCAGAAACCUGAAGGAGCGCCGGAAAAGGCAGGUAGGUCGCGGGAACAUGAGGAUCACCCAUGUAUUC [dancer_small]

>  <Assigned Category>
L

$$$$
>  <Entry Sequence>
GGCACAUAGUCGGCCGCCACUAGUGGGAAAUGGGAGAACAUGAGGAUCACCCAUGUAGCGUAGCCUAGGACCGGGACUAUGUGCC [Elephant]

>  <Assigned Category>
M

$$$$
